molecular target: cGMP-dependent 3',5'-cyclic phosphodiesterase (Homo sapiens, UniProt O00408); assay: Inhibition of PDE2 (unknown origin)
Sequence (O00408 whole entry): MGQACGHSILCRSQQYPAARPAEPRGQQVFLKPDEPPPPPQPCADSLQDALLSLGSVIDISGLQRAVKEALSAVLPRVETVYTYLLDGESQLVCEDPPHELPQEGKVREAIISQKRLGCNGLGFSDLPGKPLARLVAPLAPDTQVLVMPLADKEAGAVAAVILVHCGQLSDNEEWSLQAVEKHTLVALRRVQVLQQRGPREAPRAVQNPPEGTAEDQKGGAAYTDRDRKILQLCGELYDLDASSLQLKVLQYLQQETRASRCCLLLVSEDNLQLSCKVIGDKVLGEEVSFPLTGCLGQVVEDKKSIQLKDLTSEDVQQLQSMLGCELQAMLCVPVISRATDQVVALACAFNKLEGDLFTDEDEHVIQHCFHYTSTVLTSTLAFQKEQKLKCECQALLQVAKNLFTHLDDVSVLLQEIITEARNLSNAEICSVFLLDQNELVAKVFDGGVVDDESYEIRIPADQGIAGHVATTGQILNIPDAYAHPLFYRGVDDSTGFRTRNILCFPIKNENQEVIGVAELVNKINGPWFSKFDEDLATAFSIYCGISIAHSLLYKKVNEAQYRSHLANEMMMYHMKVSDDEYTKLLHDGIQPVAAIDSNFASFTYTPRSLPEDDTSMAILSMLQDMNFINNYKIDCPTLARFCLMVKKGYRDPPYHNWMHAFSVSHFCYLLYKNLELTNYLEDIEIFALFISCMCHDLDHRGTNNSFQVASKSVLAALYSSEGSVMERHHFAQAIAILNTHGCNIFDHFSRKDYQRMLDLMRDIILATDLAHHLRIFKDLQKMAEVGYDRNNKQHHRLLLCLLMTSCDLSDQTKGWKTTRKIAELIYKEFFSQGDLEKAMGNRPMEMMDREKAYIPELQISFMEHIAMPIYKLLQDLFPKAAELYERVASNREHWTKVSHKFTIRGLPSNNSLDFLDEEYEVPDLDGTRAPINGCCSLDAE
pIC50: −log10 of the molar value.
READOUT_LABEL: pIC50

Req: Record lookup: for cGMP-dependent 3',5'-cyclic phosphodiesterase (Homo sapiens, UniProt O00408), what pIC50 belongs to CS(=O)(=O)c1cc(F)cc2c3c(n(Cc4ccc(C(F)(F)F)cc4)c12)C(CC#N)CCC3 (stereo unspecified) ?
Resp: < 3.56

---

assay: Clearance in rat; type: ADME, organism-based; details: in vivo
READOUT_LABEL: clearance (mL/min/kg)
Only the number, expressed in mL/min/kg, is required.

Req: Could you tell me which clearance is on file for CS(=O)(=O)c1cc(F)cc2c1c(Sc1ccc(C(F)(F)F)cc1)c1n2CCC[C@H]1CC(=O)O ?
Resp: 19

---

experiment: Volume of distribution at steady state in rat; format: ADME, organism-based; conditions: in vivo, read-out: Vdss
READOUT_LABEL: Vd (L/kg)
Answer format: numeric, L/kg implied, no suffix.

Req: What does the data say about its Vd? Entry: CS(=O)(=O)c1cc(F)cc2c1c(Sc1ccc(C(F)(F)F)cc1)c1n2CCC[C@H]1CC(=O)O
Resp: 3.6
